- TGT: rat thoracic aorta rings (Rattus norvegicus)
- Sequence (P49684 1-386): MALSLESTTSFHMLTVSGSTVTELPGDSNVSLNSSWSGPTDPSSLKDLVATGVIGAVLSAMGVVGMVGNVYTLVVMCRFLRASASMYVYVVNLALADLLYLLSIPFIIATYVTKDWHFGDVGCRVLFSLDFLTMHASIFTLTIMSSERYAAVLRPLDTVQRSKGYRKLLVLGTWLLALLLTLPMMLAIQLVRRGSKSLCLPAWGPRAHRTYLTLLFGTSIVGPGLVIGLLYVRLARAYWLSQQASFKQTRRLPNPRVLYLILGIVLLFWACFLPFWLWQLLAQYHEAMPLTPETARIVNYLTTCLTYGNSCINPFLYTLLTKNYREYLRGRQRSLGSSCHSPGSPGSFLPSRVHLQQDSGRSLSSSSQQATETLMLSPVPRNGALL
- EXPERIMENT: Rat aortic ring contraction (agonist)
- CONDITION_NOTES: mean ± SEM, n = 22 (hUII, URP), n = 5 (pepducins)
- Description: Each replicate (n) was conducted on tissue obtained from at least three different animals. Data represent mean ± SEM. Adult male Sprague-Dawley rats (Charles-River) weighing 250–300 g were housed in cages under controlled illumination (12:12 h light–dark cycle), humidity, and temperature (21–23 °C) and had free access to tap water and rat chow. […]
contraction pEC50 values by entry
Please state the value as a number alone, without comment.

* CC(C)[C@H](NC(=O)[C@@H]1CSSC[C@H](NC(=O)[C@H](CC(=O)O)NC(=O)[C@@H]2CCCN2C(=O)[C@@H](NC(=O)[C@@H](N)CCC(=O)O)[C@@H](C)O)C(=O)N[C@@H](Cc2ccccc2)C(=O)N[C@@H](Cc2c[nH]c3ccccc23)C(=O)N[C@@H](CCCCN)C(=O)N[C@@H](Cc2ccc(O)cc2)C(=O)N1)C(=O)O [hUII, urotensin II, reference compound] | 8.64

Okay, now this molecule:
Ask | Give reported contraction pEC50 value for CC(C)[C@H](NC(=O)[C@@H]1CSSC[C@H](NC(=O)[C@H](C)N)C(=O)N[C@@H](Cc2ccccc2)C(=O)N[C@@H](Cc2c[nH]c3ccccc23)C(=O)N[C@@H](CCCCN)C(=O)N[C@@H](Cc2ccc(O)cc2)C(=O)N1)C(=O)O [URP, urotensin II-related peptide, reference compound]
Reply | 8.10
